Listing of recorded Activity by entry.
- target: Amyloid-beta precursor protein (Homo sapiens) (UniProt P05067)
- Sequence (P05067 whole entry): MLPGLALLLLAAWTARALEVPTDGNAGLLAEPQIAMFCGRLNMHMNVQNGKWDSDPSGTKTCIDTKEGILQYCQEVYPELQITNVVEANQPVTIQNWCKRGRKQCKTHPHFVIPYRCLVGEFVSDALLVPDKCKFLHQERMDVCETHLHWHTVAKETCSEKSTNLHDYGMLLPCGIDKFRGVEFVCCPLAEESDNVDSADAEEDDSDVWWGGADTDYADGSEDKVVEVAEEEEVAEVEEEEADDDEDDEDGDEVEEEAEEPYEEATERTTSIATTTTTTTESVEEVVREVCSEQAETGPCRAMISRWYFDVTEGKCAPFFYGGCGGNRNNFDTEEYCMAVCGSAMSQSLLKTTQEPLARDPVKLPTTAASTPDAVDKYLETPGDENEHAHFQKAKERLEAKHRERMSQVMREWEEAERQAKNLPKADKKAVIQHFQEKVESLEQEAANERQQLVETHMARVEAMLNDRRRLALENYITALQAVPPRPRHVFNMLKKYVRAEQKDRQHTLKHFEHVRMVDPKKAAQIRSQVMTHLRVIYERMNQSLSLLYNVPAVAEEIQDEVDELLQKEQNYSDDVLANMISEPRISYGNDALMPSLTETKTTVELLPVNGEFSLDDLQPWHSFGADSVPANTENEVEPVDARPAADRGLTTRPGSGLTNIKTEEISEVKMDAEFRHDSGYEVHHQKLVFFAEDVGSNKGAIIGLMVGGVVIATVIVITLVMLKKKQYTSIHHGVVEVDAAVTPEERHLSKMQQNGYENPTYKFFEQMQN
- protocolNotes: Neuroprotective activity against amyloid beta (25 to 35)-induced cell death in human SH-SY5Y cells assessed as cell viability at 0.08 uM after 24 hrs by MTT assay relative to control
- Format: functional, cell-based
Quick reminder: number only, in %, skip the unit.

A selection of reference data follows.
* COc1cc([C@@H]2c3cc(OC)c(O)cc3C=C(C)[C@H]2C)ccc1O | 58.6
* COc1cc(C[C@H](C)[C@H](C)Cc2ccc3c(c2)OCO3)ccc1O | 57
* COc1ccc(C[C@@H](C)[C@@H](C)Cc2ccc3c(c2)OCO3)cc1OC | 58.1
* OC[C@H](Cc1ccc2c(c1)OCO2)[C@H](CO[C@@H]1O[C@H](CO)[C@@H](O)[C@H](O)[C@H]1O)Cc1ccc2c(c1)OCO2 | 65
* OC[C@H](Cc1ccc2c(c1)OCO2)[C@H](CO[C@@H]1O[C@H](CO[C@@H]2O[C@@H](CO)[C@H](O)[C@H]2O)[C@@H](O)[C@H](O)[C@H]1O)Cc1ccc2c(c1)OCO2 | 58

Tell me the measured Activity of COc1cc([C@H]2c3cc4c(cc3C[C@@H](C)[C@@H]2C)OCO4)ccc1O , please.
57.7

Returns the measured Activity for the input molecule. Input: COc1cc(C[C@@H](C)[C@@H](C)Cc2ccc(O)c(OC)c2)ccc1O [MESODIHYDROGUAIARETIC ACID]
62.2

Look up Activity: O=C1O[C@H]([C@@H](O)CO)C(O)=C1O
54.1

Item under review: COc1ccc([C@H]2O[C@H](c3ccc4c(c3)OCO4)[C@@H](C)[C@H]2C)cc1OC . Reported Activity?
58.2

Quick one: Activity for COc1ccc(C(=O)O[C@@H](c2ccc3c(c2)OCO3)[C@H](C)C(C)=O)cc1OC ?
58.3

Can you look up the measured Activity of COc1ccc([C@H]2c3cc4c(cc3C[C@@H](C)[C@@H]2C)OCO4)cc1OC for me?
57.4
